system: MIA-PaCa-2 (Pancreatic Carcinoma); assay: combination Emax (second highest fraction inhibited in the dose matrix, 72 h); higher = more inhibition; extreme values may be limits of the assay
parameterMeasured: combination Emax
Number only, please.

# compound, testedTarget, combination Emax
measured = [
    ("NC1(C(=O)N[C@@H](CCO)c2ccc(Cl)cc2)CCN(c2ncnc3[nH]ccc23)CC1 [Capivasertib] + CC(=O)c1c(C)c2cnc(Nc3ccc(N4CCNCC4)cn3)nc2n(C2CCCC2)c1=O [Palbociclib] (first compound max 10 µM, 7x7, partner max 10 µM)", "MIA-PaCa-2 (Pancreatic Carcinoma)", 0.451),
]

Here's the next entry for you.
Return reported combination Emax; argument: NC1(C(=O)N[C@@H](CCO)c2ccc(Cl)cc2)CCN(c2ncnc3[nH]ccc23)CC1 [Capivasertib] + COc1nnc2ccc(N3CCC(c4ccc(OCCN5CCN(C)C(=O)[C@H]5C)cc4)CC3)nn12 [AZD5153] (first compound max 10 µM, 7x7, partner max 1 µM)
0.813

----------
system: SU8686 (Pancreatic Carcinoma); experiment: combination Emax (second highest fraction inhibited in the dose matrix, 72 h); higher = more inhibition; extreme values may be limits of the assay
parameterMeasured: combination Emax
Could you keep your reply to the number by itself?

Observe how each entry below is paired with its result.
# compound, combination Emax
data = [
    ("Cc1c2c(nn1C)CSCc1cc(n(C)n1)CSc1cc(c3ccccc3c1)OCCCc1c(C(=O)O)n(C)c3c-2c(Cl)ccc13 [AZD5991] + C1CN(CCC1(C(=O)N[C@@H](CCO)C2=CC=C(C=C2)Cl)N)C3=NC=NC4=C3C=CN4 [Capivasertib] (first compound max 1 µM, 7x7, partner max 3 µM)", 0.129),
    ("C=CCn1c(=O)c2cnc(Nc3ccc(N4CCN(C)CC4)cc3)nc2n1-c1cccc(C(C)(C)O)n1 [AZD1775] + C[C@@H]1COCCN1C2=NC(=NC(=C2)C3(CC3)[S@](=N)(=O)C)C4=C5C=CNC5=NC=C4 [AZD6738] (first compound max 1 µM, partner max 10 µM)", 0.384),
]

Lab note: next compound to report on.
Give the measured combination Emax of CC1(C)CCC(CN2CCN(c3ccc(C(=O)NS(=O)(=O)c4ccc(NCC5CCOCC5)c([N+](=O)[O-])c4)c(Oc4cnc5[nH]ccc5c4)c3)CC2)=C(c2ccc(Cl)cc2)C1 [Venetoclax] + COc1cc(Nc2ncc3c(n2)-c2ccc(Cl)cc2C(c2c(F)cccc2OC)=NC3)ccc1C(=O)O [Alisertib] (first compound max 1 µM, 7x7, partner max 10 µM) .
0.117

----------
system: RF-48 (B-Cell Non-Hodgkin's Lymphoma); assay: combination Emax (second highest fraction inhibited in the dose matrix, 72 h); higher = more inhibition; extreme values may be limits of the assay
parameterMeasured: combination Emax
Enter the number alone.

Illustrative cases are given below, each with its answer.
# compound, testedTarget, combination Emax
measured = [
    ("Cc1cc2ncnn2cc1Nc1ncc2c(n1)n(C1CCOCC1)c(=O)n2C [AZD7648] + COc1cc([C@@H]2c3cc4c(cc3[C@@H](O[C@@H]3O[C@@H]5CO[C@@H](C)O[C@H]5[C@H](O)[C@H]3O)[C@H]3COC(=O)[C@H]23)OCO4)cc(OC)c1O [Etoposide] (first compound max 10 µM, 7x7, partner max 10 µM)", "RF-48 (B-Cell Non-Hodgkin's Lymphoma)", 0.755),
    ("CN(CCO)CC[C@H](CSc1ccccc1)Nc1ccc(S(=O)(=O)NC(=O)c2ccc(N3CCC([C@@H](O)c4ccccc4-c4ccc(Cl)cc4)CC3)cc2)cc1S(=O)(=O)C(F)(F)F [AZD4320] + CCN(CCO)CCCOc1ccc2c(Nc3cc(CC(=O)Nc4cccc(F)c4)[nH]n3)ncnc2c1 [AZD2811] (first compound max 1 µM, 7x7, partner max 1 µM)", "RF-48 (B-Cell Non-Hodgkin's Lymphoma)", 0.881),
    ("COc1cc2c(cc1OCCCCCOc1cc3c(cc1OC)C(=O)N1C=C(C)C[C@H]1C=N3)N=C[C@@H]1CC(C)=CN1C2=O [SG3199] + O=C(c1cc(Cc2n[nH]c(=O)c3ccccc23)ccc1F)N1CCN(C(=O)C2CC2)CC1 [Olaparib] (first compound max 0.001 µM, 7x7, partner max 10 µM)", "RF-48 (B-Cell Non-Hodgkin's Lymphoma)", 0.266),
    ("Cc1c2c(nn1C)CSCc1cc(n(C)n1)CSc1cc(c3ccccc3c1)OCCCc1c(C(=O)O)n(C)c3c-2c(Cl)ccc13 [AZD5991] + Nc1ccn([C@@H]2O[C@H](CO)[C@@H](O)C2(F)F)c(=O)n1 [Gemcitabine] (first compound max 1 µM, 7x7, partner max 0.3 µM)", "RF-48 (B-Cell Non-Hodgkin's Lymphoma)", 0.679),
    ("NC1(C(=O)N[C@@H](CCO)c2ccc(Cl)cc2)CCN(c2ncnc3[nH]ccc23)CC1 [Capivasertib] + CC(=O)c1c(C)c2cnc(Nc3ccc(N4CCNCC4)cn3)nc2n(C2CCCC2)c1=O [Palbociclib] (first compound max 10 µM, 7x7, partner max 10 µM)", "RF-48 (B-Cell Non-Hodgkin's Lymphoma)", 0.42),
    ("Cc1c2c(nn1C)CSCc1cc(n(C)n1)CSc1cc(c3ccccc3c1)OCCCc1c(C(=O)O)n(C)c3c-2c(Cl)ccc13 [AZD5991] + Cc1cc2ncnn2cc1Nc1ncc2c(n1)n(C1CCOCC1)c(=O)n2C [AZD7648] (first compound max 1 µM, 7x7, partner max 10 µM)", "RF-48 (B-Cell Non-Hodgkin's Lymphoma)", 0.262),
]

Switching to the query record.
May I ask what combination Emax has been recorded for NC1(C(=O)N[C@@H](CCO)c2ccc(Cl)cc2)CCN(c2ncnc3[nH]ccc23)CC1 [Capivasertib] + CC(C)n1c(=O)n(C)c2cnc3cc(F)c(-c4ccc(OCCCN5CCCCC5)nc4)cc3c21 [AZD1390] (first compound max 10 µM, 7x7, partner max 0.3 µM) ?
0.44
